# procedure-details: PK of compound of Formula (Ia) after single subcutaneous dose of solution formulations in beagle dogs
# Type: in vivo
# condition-description: male, beagle, dog, plasma, sc, 12 mg/kg, 1.00 h; mean, n = 3 dogs; SC 12 mg/kg; solution T, 400 mg/mL
value-kind: concentration at 1 h (nM)

{"entry-smiles": "CC(C)(C#Cc1ccc(-c2ccc(Cl)c3c(NS(C)(=O)=O)nn(CC(F)(F)F)c23)c([C@H](Cc2cc(F)cc(F)c2)NC(=O)Cn2nc(C(F)(F)F)c3c2C(F)(F)[C@@H]2C[C@H]32)n1)S(C)(=O)=O", "value-kind": "concentration at 1 h", "result-units": "nM", "value-reported": 6.07}

====

# procedure-details: PK of compound of Formula (Ia) after single subcutaneous dose of solution formulations in beagle dogs
# Format: in vivo
# condition-description: male, beagle, dog, plasma, sc, 12 mg/kg, beagle dogs, SC 12 mg/kg, 400 mg/mL solution AA (6.25% poloxamer 188), 3696 h, Mean

{"entry-smiles": "CC(C)(C#Cc1ccc(-c2ccc(Cl)c3c(NS(C)(=O)=O)nn(CC(F)(F)F)c23)c([C@H](Cc2cc(F)cc(F)c2)NC(=O)Cn2nc(C(F)(F)F)c3c2C(F)(F)[C@@H]2C[C@H]32)n1)S(C)(=O)=O", "concentration at 3696 h": "1.56 nM"}

====

# procedure-details: PK of compound of Formula (Ia) after single subcutaneous dose of solution formulations in beagle dogs
# Assay type: in vivo
# condition-description: male, beagle, dog, plasma, sc, 12 mg/kg, beagle dogs, SC 12 mg/kg, 400 mg/mL solution Y (water, PEG 300), 1680 h, animals #1-#3

{"molecule": "CC(C)(C#Cc1ccc(-c2ccc(Cl)c3c(NS(C)(=O)=O)nn(CC(F)(F)F)c23)c([C@H](Cc2cc(F)cc(F)c2)NC(=O)Cn2nc(C(F)(F)F)c3c2C(F)(F)[C@@H]2C[C@H]32)n1)S(C)(=O)=O [compound of Formula (Ia)]", "result-units": "nM", "concentration at 1680 h": 27.2}

====

# procedure-details: PK of compound of Formula (Ia) after single subcutaneous dose of solution formulations in beagle dogs
# Format: in vivo
# condition-description: male, beagle, dog, plasma, sc, 12 mg/kg, beagle dogs, SC 12 mg/kg, 400 mg/mL solution AA (6.25% poloxamer 188), 1680 h, Mean n = 3

{"entry-smiles": "CC(C)(C#Cc1ccc(-c2ccc(Cl)c3c(NS(C)(=O)=O)nn(CC(F)(F)F)c23)c([C@H](Cc2cc(F)cc(F)c2)NC(=O)Cn2nc(C(F)(F)F)c3c2C(F)(F)[C@@H]2C[C@H]32)n1)S(C)(=O)=O", "concentration at 1680 h": "28 nM"}

====

# procedure-details: PK of compound of Formula (Ia) after single subcutaneous dose of solution formulations in Wistar Han rats
# Type: in vivo
# condition-description: male, Wistar Han, rat, plasma, sc, 50 mg/kg, 6720 h; mean, n = 3 rats; SC 50 mg/kg; solution R, 400 mg/mL

{"entry-smiles": "CC(C)(C#Cc1ccc(-c2ccc(Cl)c3c(NS(C)(=O)=O)nn(CC(F)(F)F)c23)c([C@H](Cc2cc(F)cc(F)c2)NC(=O)Cn2nc(C(F)(F)F)c3c2C(F)(F)[C@@H]2C[C@H]32)n1)S(C)(=O)=O", "concentration at 6720 h [nM]": 26.3}

====

# procedure-details: PK of compound of Formula (Ia) after single subcutaneous dose of solution formulations in Wistar Han rats
# Assay type: in vivo
# condition-description: male, Wistar Han, rat, plasma, sc, 50 mg/kg, Wistar Han rats, SC 50 mg/kg, 400 mg/mL solution Y (water, PEG 300), 1008 h, Mean n = 4

{"entry-smiles": "CC(C)(C#Cc1ccc(-c2ccc(Cl)c3c(NS(C)(=O)=O)nn(CC(F)(F)F)c23)c([C@H](Cc2cc(F)cc(F)c2)NC(=O)Cn2nc(C(F)(F)F)c3c2C(F)(F)[C@@H]2C[C@H]32)n1)S(C)(=O)=O", "concentration at 1008 h / nM": 162}

====

# procedure-details: PK of compound of Formula (Ia) after single subcutaneous dose of solution formulations in Wistar Han rats
# Type: in vivo
# condition-description: male, Wistar Han, rat, plasma, sc, 50 mg/kg, 3024 h; individual rats; SC 50 mg/kg; solution R, 400 mg/mL
value-kind: concentration at 3024 h (nM)

{"compound": "CC(C)(C#Cc1ccc(-c2ccc(Cl)c3c(NS(C)(=O)=O)nn(CC(F)(F)F)c23)c([C@H](Cc2cc(F)cc(F)c2)NC(=O)Cn2nc(C(F)(F)F)c3c2C(F)(F)[C@@H]2C[C@H]32)n1)S(C)(=O)=O [compound of Formula (Ia)]", "value-reported": 136}

====

# procedure-details: PK of compound of Formula (Ia) after single subcutaneous dose of solution formulations in beagle dogs
# Type: in vivo
# condition-description: male, beagle, dog, plasma, sc, 6 mg/kg, 24.0 h; individual dogs; SC 6 mg/kg; solution V, 300 mg/mL
value-kind: concentration at 24 h (nM)

{"entry-smiles": "CC(C)(C#Cc1ccc(-c2ccc(Cl)c3c(NS(C)(=O)=O)nn(CC(F)(F)F)c23)c([C@H](Cc2cc(F)cc(F)c2)NC(=O)Cn2nc(C(F)(F)F)c3c2C(F)(F)[C@@H]2C[C@H]32)n1)S(C)(=O)=O", "result-units": "nM", "value-reported": 22.3}

====

# procedure-details: PK of compound of Formula (Ia) after single subcutaneous dose of solution formulations in beagle dogs
# Type: in vivo
# condition-description: male, beagle, dog, plasma, sc, 12 mg/kg, male beagle dogs, single SC 12 mg/kg, 400 mg/mL solution AA (6.25% poloxamer 188), mean ± SD, n = 3; read-out: AUC0-672 h
value-kind: AUC(0-t)

{"compound": "CC(C)(C#Cc1ccc(-c2ccc(Cl)c3c(NS(C)(=O)=O)nn(CC(F)(F)F)c23)c([C@H](Cc2cc(F)cc(F)c2)NC(=O)Cn2nc(C(F)(F)F)c3c2C(F)(F)[C@@H]2C[C@H]32)n1)S(C)(=O)=O [compound of Formula (Ia)]", "value-reported": "108 µM·h"}

====

# procedure-details: PK of compound of Formula (Ia) after single subcutaneous dose of solution formulations in Wistar Han rats
# Assay type: in vivo
# condition-description: male, Wistar Han, rat, plasma, sc, 50 mg/kg, Wistar Han rats, SC 50 mg/kg, 400 mg/mL solution W (5.00% ethanol, 1.57% poloxamer 188), 4032 h, Mean n = 3
value-kind: concentration at 4032 h (nM)

{"compound": "CC(C)(C#Cc1ccc(-c2ccc(Cl)c3c(NS(C)(=O)=O)nn(CC(F)(F)F)c23)c([C@H](Cc2cc(F)cc(F)c2)NC(=O)Cn2nc(C(F)(F)F)c3c2C(F)(F)[C@@H]2C[C@H]32)n1)S(C)(=O)=O [compound of Formula (Ia)]", "result-units": "nM", "value-reported": 97.5}

====

# procedure-details: PK of compound of Formula (Ia) after single subcutaneous dose of solution formulations in Wistar Han rats
# Type: in vivo
# condition-description: male, Wistar Han, rat, plasma, sc, 50 mg/kg, 96.0 h; individual rats; SC 50 mg/kg; solution U, 500 mg/mL
# Description: Formulations containing the compound of Formula (Ia), or a pharmaceutically acceptable salt thereof, were prepared as solutions and optionally administered subcutaneously or intramuscularly to rats, rabbits, and/or dogs. A solution of about 400 mg/mL of the compound of Formula (Ia) having 19.14 w/w % water, 40.66 w/w % PEG 300, 35.20 w/w % of a sodium salt of a compound of Formula (Ia), and 5.00% ethanol was prepared. […]
value-kind: concentration at 96 h

{"entry-smiles": "CC(C)(C#Cc1ccc(-c2ccc(Cl)c3c(NS(C)(=O)=O)nn(CC(F)(F)F)c23)c([C@H](Cc2cc(F)cc(F)c2)NC(=O)Cn2nc(C(F)(F)F)c3c2C(F)(F)[C@@H]2C[C@H]32)n1)S(C)(=O)=O", "value-reported": "230 nM"}

====

# procedure-details: PK of compound of Formula (Ia) after single subcutaneous dose of solution formulations in Wistar Han rats
# Format: in vivo
# condition-description: male, Wistar Han, rat, plasma, sc, 50 mg/kg, mean ± SD, n = 3 rats; SC 50 mg/kg; solution V, 300 mg/mL; read-out: AUC0-24 h

{"entry-smiles": "CC(C)(C#Cc1ccc(-c2ccc(Cl)c3c(NS(C)(=O)=O)nn(CC(F)(F)F)c23)c([C@H](Cc2cc(F)cc(F)c2)NC(=O)Cn2nc(C(F)(F)F)c3c2C(F)(F)[C@@H]2C[C@H]32)n1)S(C)(=O)=O", "AUC(0-t) / µM·h": 3.66}
